Reference source: PubChem BioAssay (EPA / NIEHS)

test-description: APR_HepG2_MitoticArrest_72hr: Apredica 72-hour HepG2 Assay for Mitotic Arrest (AID 2282918)
assay-setup: high-content imaging, actives raise or lower the signal
Active and inactive are the calls of the source. Rule for the calls: active = hit-call score of the fitted dose curve at least 0.9, where 1 is the maximum; inactive = score below 0.9.
The reply should be one of these categories: 1 (active), -1 (inactive)

Example entries begin here.
>>> df
                                   compound  class_name
0                             Nc1ccc(Cl)cc1          -1
1  ClC1=C(Cl)C2(Cl)C3C(Cl)C(Cl)CC3C1(Cl)C2(Cl)Cl (stereo not drawn)           1
2                           Nc1ccc2ccccc2c1          -1
3                  Cc1ccc([N+](=O)[O-])cc1C          -1
4                       CC(C)(C)c1ccc(O)cc1          -1

Record request — test call for `Cc1cccc(N)c1`
-1

Record request — test call for `CCN(CC)c1ccccc1`
-1

Record request — test call for O=P1(N(CCCl)CCCl)NCCCO1 (stereo not drawn)
-1

Record request — test call for `[N-]=[N+]=[N-]`
-1

Record request — test call for `O=[N+]([O-])c1ccc(Cl)c(Cl)c1`
-1

Record request — test call for `CC(C)(C)OOC(C)(C)C`
-1

Record request — test call for OCC1CO1 (stereo not drawn)
-1

Record request — test call for `CCNc1nc(Cl)nc(NC(C)(C)C)n1`
-1

---

test-description: ATG_PBREM_CIS: Attagene CIS-FACTORIAL HepG2 Assay for human Phenobarbital-responsive Enhancer Module (PBREM) (AID 2282955)
assay-setup: HepG2 PBREM cis-reporter, Attagene multiplexed transcription; actives raise or lower the signal
Activity calls are given as the source filed them. How the source made its calls: active means hit-call score of the fitted dose curve at least 0.9, where 1 is the maximum; inactive means score below 0.9.
The reply should be one of these categories: active, inactive

>>> df
                     compound  class_name
0  O=[N+]([O-])c1cc(Cl)ccc1Cl    inactive

Record request — test call for `Nc1cc2c3c(c1)C(c1ccccc1)=N[C@@H](NC(=O)c1cccnc1)C(=O)N3CC2`
active

Record request — test call for `ClC(Cl)(Cl)c1ccccc1`
inactive

Record request — test call for `CCOP(=S)(OCC)SCS(=O)(=O)CC`
inactive

---

Read-out: TIMP metallopeptidase inhibitor 1 (TIMP1), TIMP1 (gene 7076)
test-description: BSK_hDFCGF_TIMP1: BioMAP Diversity Plus: hDFCGF Assay for TIMP metallopeptidase inhibitor 1 (TIMP1) Biomarker Activity (AID 2283062)
assay-setup: primary human foreskin fibroblasts; actives raise or lower the signal
The source made the active and inactive calls. The calls were made as follows: active = hit-call score of the fitted dose curve at least 0.9, where 1 is the maximum; inactive = score below 0.9.
The reply should be one of these categories: active, inactive

                                   compound  class_name
0  CC(C)(C)c1ccccc1OP(=O)(Oc1ccccc1)Oc1ccccc1      active

Record request — test call for CC(Cc1ccc(OCC(=O)O)cc1)NCC(O)c1csc(C(F)(F)F)n1 (configuration not stated)
inactive

Record request — test call for `CSC(C)(C)C=NO`
inactive

Record request — test call for `O=C(O)C(Cl)Cl`
inactive

Record request — test call for `Nc1cc2c3c(c1)C(c1ccccc1)=N[C@@H](NC(=O)c1cccnc1)C(=O)N3CC2`
inactive

---

test-description: BSK_KF3CT_SRB: Viability Assessment in the BioMAP Diversity Plus: KF3CT Assay (AID 2283069);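 note: total protein by sulforhodamine B staining as a cytotoxicity measure; read 24 h after compound addition; fitted for both signal gain and loss against DMSO baseline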
assay-setup: primary human keratinocytes with fibroblasts
Active and inactive are the calls of the source. How the source made its calls: active means hit-call score of the fitted dose curve at least 0.9, where 1 is the maximum; inactive means score below 0.9.
The reply should be one of these categories: 1 (active), 0 (inactive)

Example entries begin here.
In [3]: df
Out[3]:
                      smiles_notation  class_name
0                       Nc1ccc(Cl)cc1           0
1  OCC(F)(F)OC(F)(F)C(F)(F)OC(F)(F)CO           0
2                    CC(Cl)(Cl)C(=O)O           0
3                CCC(C)(C)c1ccc(O)cc1           0
4                       Cc1ccc(N)cc1N           0

Below: the item to evaluate.
Record request — test call for `N#Cc1c(-c2ccc(Cl)cc2)[nH]c(C(F)(F)F)c1Br`
0

---

test-description: ATG_VDRE_CIS: Attagene CIS-FACTORIAL HepG2 Assay for human Vitamin D Receptor Element (VDRE) (AID 2282968)
assay-setup: HepG2 VDRE cis-reporter transcription, actives raise or lower the signal
Active and inactive are the calls of the source. How the source made its calls: active means hit-call score of the fitted dose curve at least 0.9, where 1 is the maximum; inactive means score below 0.9.
The reply should be one of these categories: active, inactive

Example entries begin here.
>>> df
             smiles_notation  class_name
0               CCCCc1ccccc1    inactive
1  CC(=O)c1ccc(-c2ccccc2)cc1      active

Record request — test call for `CCOP(=S)(OCC)SCn1nnc2ccccc2c1=O`
active

Record request — test call for `CNC(=O)Oc1ccc(N(C)C)c(C)c1`
inactive

Record request — test call for `CC1(C)CN=C(NN=C(/C=C/c2ccc(C(F)(F)F)cc2)/C=C/c2ccc(C(F)(F)F)cc2)NC1`
inactive

---

tgt: X-box-binding protein 1 (Homo sapiens) (UniProt P17861)
Sequence (P17861 whole entry, looked up): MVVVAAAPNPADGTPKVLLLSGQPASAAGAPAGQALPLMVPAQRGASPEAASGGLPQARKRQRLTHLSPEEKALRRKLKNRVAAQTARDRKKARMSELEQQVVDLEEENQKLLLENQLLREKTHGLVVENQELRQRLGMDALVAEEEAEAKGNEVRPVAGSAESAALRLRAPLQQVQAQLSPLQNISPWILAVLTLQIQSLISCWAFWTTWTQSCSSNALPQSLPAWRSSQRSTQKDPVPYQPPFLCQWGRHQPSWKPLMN
test-description: ATG_Xbp1_CIS: Attagene CIS-FACTORIAL HepG2 Assay for human X-box Binding Protein 1 (XBP1) (AID 2282972)
assay-setup: HepG2 XBP1 cis-element reporter, Attagene multiplex; actives raise or lower the signal
Calls of active or inactive are those of the source. Rule for the calls: active = hit-call score of the fitted dose curve at least 0.9, where 1 is the maximum; inactive = score below 0.9.
The reply should be one of these categories: Yes (active), No (inactive)

Example entries begin here.
>>> print(df.to_string())
                                   compound                                       tgt  class_name
0                       CC(C)(C)c1ccc(O)cc1  X-box-binding protein 1 (Homo sapiens) (UniProt P17861)         Yes
1  N#Cc1c(-c2ccc(Cl)cc2)[nH]c(C(F)(F)F)c1Br  X-box-binding protein 1 (Homo sapiens) (UniProt P17861)          No
2  ClC1=C(Cl)C2(Cl)C3C(Cl)C(Cl)CC3C1(Cl)C2(Cl)Cl (stereo not drawn)  X-box-binding protein 1 (Homo sapiens) (UniProt P17861)          No
3                             CSC(C)(C)C=NO  X-box-binding protein 1 (Homo sapiens) (UniProt P17861)          No
4                CCNc1nc(Cl)nc(NC(C)(C)C)n1  X-box-binding protein 1 (Homo sapiens) (UniProt P17861)          No
5  CCOP(=S)(NC(C)C)Oc1ccccc1C(=O)OC(C)C (stereo not drawn)  X-box-binding protein 1 (Homo sapiens) (UniProt P17861)          No
6                N#Cc1cc([N+](=O)[O-])ccc1N  X-box-binding protein 1 (Homo sapiens) (UniProt P17861)          No

Below: the item to evaluate.
Record request — test call for `FC(F)(F)c1ccc(Cl)cc1`
No

---

Read-out: Monocyte Chemoattractant Protein-1 (MCP1), CCL2 (gene 6347)
test-description: BSK_3C_MCP1: BioMAP Diversity Plus: 3C Assay for Monocyte Chemoattractant Protein-1 (MCP1) Biomarker Activity (AID 2283017)
assay-setup: primary human endothelial cells (HUVEC); actives raise or lower the signal
Active and inactive are the calls of the source. The calls were made as follows: active = hit-call score of the fitted dose curve at least 0.9, where 1 is the maximum; inactive = score below 0.9.
assay-metric: AC50

In [3]: df
Out[3]:
                                   compound            result
0           CCOP(=S)(OCC)SCn1nnc2ccccc2c1=O          inactive
1  CCCCC(CC)COP(=O)(Oc1ccccc1)Oc1ccccc1 (centres undefined)  10.6 µM (active)
2                O=C(O)C(F)(F)C(F)(F)C(=O)O          inactive
3  CCOP(=S)(NC(C)C)Oc1ccccc1C(=O)OC(C)C (centres undefined)          inactive

---

Read-out: CD69, CD69 (gene 969)
test-description: BSK_SAg_CD69: BioMAP Diversity Plus: SAg Assay for CD69 Biomarker Activity (AID 2283089);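 for AC50: cell surface CD69 protein quantified by ELISA with fluorescence detection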
assay-setup: primary human HUVEC with PBMC; actives raise or lower the signal
Calls of active or inactive are those of the source. Rule for the calls: active = hit-call score of the fitted dose curve at least 0.9, where 1 is the maximum; inactive = score below 0.9.
assay-metric: AC50

>>> df
                                   compound  assay_metric            result
0                        CC(C)(C)OOC(C)(C)C          AC50          inactive
1                CCOP(=S)(OCC)SCS(=O)(=O)CC          AC50          inactive
2                            CCOP(=S)(S)OCC          AC50          inactive
3  COC(=O)C(F)(F)C(F)(F)OC(F)(C(F)(F)F)C(F)(F)OC(F)=C(F)F (stereo not drawn)          AC50          inactive
4  CCCCN(CCCC)SN(C)C(=O)Oc1cccc2c1OC(C)(C)C2          AC50  27.6 µM (active)

For each of the items listed, what is its AC50?
1. ClC(Cl)c1ccccc1
2. CCCCC(CC)COP(=O)(Oc1ccccc1)Oc1ccccc1 (stereo not drawn)
3. CN(C)C(=O)Cl
4. CC(Cc1ccc(OCC(=O)O)cc1)NCC(O)c1csc(C(F)(F)F)n1 (stereo not drawn)
5. Cc1ccc2c(c1N)C(=O)c1ccccc1C2=O

inactive
13.3 µM (active)
inactive
inactive
inactive

For each of the items listed, what is its AC50?
1. NC(=O)C(F)(F)C(F)(F)F
2. ClC(Cl)=C(c1ccc(Cl)cc1)c1ccccc1Cl
3. CCOC(=O)c1ccccc1C(=O)OCC

inactive
14.6 µM (active)
inactive
